target: recombinant human ALK5 (TGF-βR1) protein (Homo sapiens, UniProt P36897); construct: purchased Life Technologies PR9075A; experiment: Biochemical ALK5 (TGF-βR1) assay to measure pKi (LANCE Ultra ULight kinase assay); details: apparent pKi from pIC50 by Cheng-Prusoff, read-out: ALK5 pKi (converted)
Sequence (P36897 34-503): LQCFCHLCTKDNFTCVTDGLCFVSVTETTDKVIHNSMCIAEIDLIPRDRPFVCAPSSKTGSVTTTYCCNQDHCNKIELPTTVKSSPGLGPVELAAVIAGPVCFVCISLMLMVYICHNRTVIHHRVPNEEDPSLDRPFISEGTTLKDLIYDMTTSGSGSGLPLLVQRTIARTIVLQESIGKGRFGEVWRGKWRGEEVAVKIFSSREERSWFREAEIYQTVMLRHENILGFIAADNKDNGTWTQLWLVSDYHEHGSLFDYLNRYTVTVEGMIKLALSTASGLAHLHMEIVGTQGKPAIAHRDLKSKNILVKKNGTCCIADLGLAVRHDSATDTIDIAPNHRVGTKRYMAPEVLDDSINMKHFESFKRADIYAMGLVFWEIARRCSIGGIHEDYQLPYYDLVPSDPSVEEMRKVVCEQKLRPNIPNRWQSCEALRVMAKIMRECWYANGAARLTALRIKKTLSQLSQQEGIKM

compound: Cc1cccc(-c2n[nH]cc2-c2ccc3ncc(-c4nc(CCN)c(C)[nH]4)cc3n2)n1
Ki: 0.0398 to 0.316 nM
--
compound: Cc1cccc(-c2[nH]cnc2-c2ccc3ncc(-c4csc(C(=O)OC[C@H]5CCCCN5)c4)cc3c2)n1
Ki: < 0.0316 nM
--
compound: Cc1cccc(-c2[nH]cnc2-c2ccc3ncc(-c4csc(C(=O)O[C@H]5CC[C@](C)(N)CC5)c4)cc3c2)n1
Ki: 0.0398 to 0.316 nM
--
compound: Cc1cccc(-c2nn3c(c2-c2ccc4ncc(-c5cn[nH]c5)cc4n2)CNCC3)n1
Ki: 0.0398 to 0.316 nM
--
compound: Cc1cccc(-c2n[nH]cc2-c2ccc3ncc(-c4nnc5n4CCNC5)cc3n2)n1
Ki: 3.98 to 31.6 nM
--
compound: Cc1cccc(-c2n[nH]cc2-c2ccc3ncc(-c4ccncc4)cc3n2)n1
Ki: < 0.0316 nM
--
compound: Cc1nc(-c2n[nH]cc2-c2ccc3ncc(-c4cc5c(nn4)CCNC5)cc3n2)ccc1F
Ki: 0.398 to 3.16 nM
--
compound: Cc1cccc(-c2[nH]ncc2-c2ccc3nccc(C(=O)OCCN4C[C@@H](C)N[C@@H](C)C4)c3c2)n1
Ki: 0.0398 to 0.316 nM
--
compound: Cc1cccc(-c2[nH]cnc2-c2ccc3ncc(-c4ccc5c(c4)C(N)CC5)cc3c2)n1 (stereo not shown)
Ki: < 0.0316 nM
--
compound: Cc1cccc(-c2[nH]ncc2-c2ccc3ncc(-c4nnco4)cc3n2)n1
Ki: 0.0398 to 0.316 nM
--
compound: Cc1cc(-c2cnc3ccc(-c4c[nH]nc4-c4cccc(C)n4)nc3c2)ccn1
Ki: < 0.0316 nM
--
compound: Cc1cccc(-c2[nH]cnc2-c2ccc3ncc(Nc4ccc(N5CCN(C(C)C)CC5)cn4)cc3c2)n1
Ki: 0.0398 to 0.316 nM
--
compound: Cc1cccc(-c2n[nH]cc2-c2ccc3ncc(N4CC(C)(N(C)C)C4)cc3n2)n1
Ki: < 0.0316 nM
--
compound: Cc1nc(-c2nc3ccccn3c2-c2ccc3ncc(-c4cnn5c4CNCC5)cc3n2)ccc1F
Ki: 0.0398 to 0.316 nM
--
compound: Cc1nc(-c2nc3ccccn3c2-c2ccc3ncc(-c4cc5n(n4)CCNC5)cc3n2)ccc1F
Ki: 0.0398 to 0.316 nM
--
compound: Cc1cccc(-c2n[nH]cc2-c2ccc3ncc(-c4cn5c(n4)CN(CCN)CC5)cc3n2)n1
Ki: 0.0398 to 0.316 nM
--
compound: Cc1cccc(-c2[nH]cnc2-c2ccc3ncc(-c4cncc(C(=O)O)c4)cc3c2)n1
Ki: 0.398 to 3.16 nM
--
compound: Cc1cccc(-c2n[nH]cc2-c2ccc3ncc(N4CCC[C@@H]4CO)cc3n2)n1
Ki: 0.0398 to 0.316 nM
--
compound: Cc1cccc(-c2[nH]cnc2-c2ccc3ncc(NCCNC4CCCNC4)cc3c2)n1 (racemic)
Ki: 0.0398 to 0.316 nM
--
compound: Cc1cccc(-c2[nH]cnc2-c2ccc3ncc(-c4nc(C(=O)OCCNC5CNC5)cs4)cc3c2)n1
Ki: < 0.0316 nM
--
compound: Cc1cccc(-c2n[nH]cc2-c2ccc3ncc(NCC4CNC4)cc3n2)n1
Ki: 0.0398 to 0.316 nM
--
compound: Cc1cccc(-c2[nH]cnc2-c2ccc3ncc(-c4ncc(C(=O)OC5CNC5)s4)cc3c2)n1
Ki: 0.0398 to 0.316 nM
--
compound: Cc1cccc(-c2n[nH]cc2-c2ccc3ncc(N(C)C)cc3n2)n1
Ki: 0.0398 to 0.316 nM
--
compound: Cc1cccc(-c2n[nH]cc2-c2ccc3ncc(-c4ccc(C)nc4C)cc3n2)n1
Ki: 0.0398 to 0.316 nM
--
compound: Cc1cccc(-c2[nH]cnc2-c2ccc3ncc(-c4cc(C(=O)OC5CCNCC5)cs4)cc3c2)n1
Ki: < 0.0316 nM
--
compound: Cc1cccc(-c2[nH]cnc2-c2ccc3ncc(-c4ncc(C(=O)O)cn4)cc3c2)n1
Ki: 0.0398 to 0.316 nM
--
compound: Cc1cccc(-c2n[nH]cc2-c2ccc3ncc(-c4ccccn4)cc3n2)n1
Ki: 0.0398 to 0.316 nM
--
compound: Cc1nc(-c2n[nH]cc2-c2ccc3ncc(-c4cnn([C@@H]5CCC[C@@H]5N)c4)cc3n2)ccc1F
Ki: 0.0398 to 0.316 nM
--
compound: CC(=O)Oc1ccnc2ccc(-c3c[nH]nc3-c3cccc(C)n3)nc12
Ki: 0.398 to 3.16 nM
--
compound: Cc1nc(-c2n[nH]cc2-c2ccc3ncc(-c4nnn5c4NCC5)cc3n2)ccc1F
Ki: < 0.0316 nM
--
compound: Cc1cccc(-c2n[nH]cc2-c2ccc3ncc(NCCN4CCNCC4)cc3n2)n1
Ki: < 0.0316 nM
